test system: cocklebur (Xanthium strumarium); assay: Test B pre-/postemergence; assay type: in vivo; set-up: key: 0 is no effect; 10 is complete control; conditions: Rate 250 g/ha, Postemergence (so in the source)
parameter-measured: Plant response rating, Cocklebur
Reply with the value as a number alone.

Notebook: "Cc1cnc(-c2ccc(F)c(Cl)c2)nc1Cc1cccc(C#N)c1" , Plant response rating, Cocklebur read as 0

Notebook: "CCc1cnc(-n2cnc(C(F)(F)F)n2)nc1Cc1cccc(OC(F)(F)F)c1" , Plant response rating, Cocklebur read as 0

Notebook: "Cc1cnc(-c2ccc(Cl)cc2F)nc1Cc1cccc(C#N)c1" , Plant response rating, Cocklebur read as 0

Notebook: "CCc1cnc(-n2ccc(C(F)(F)F)n2)nc1Cc1cccc(OC(F)(F)F)c1" , Plant response rating, Cocklebur read as 2

Notebook: "COc1cnc(-n2ccc(C(F)(F)F)n2)nc1Cc1cccc(C(F)(F)F)c1" , Plant response rating, Cocklebur read as 0
